# Tested on: A549
# assay-comment: NCI tumour cell line growth inhibition, 48 h
Activity calls are given as the source filed them. Cut-off read from the data, not from the text of the source: active = GI50 up to about 1.1 µM and inactive = higher.
Classes used: active, inactive

[[record]]
compound = "CSC(=Nc1nnc(-c2ccc([N+](=O)[O-])cc2)s1)SC"
assigned_label = "inactive"

[[record]]
compound = "CNC(=O)Nc1cc2c3c(c1)CCCN3CCC2"
assigned_label = "inactive"

[[record]]
compound = "c1csc(-c2cscc2-c2cccs2)c1"
assigned_label = "inactive"

[[record]]
compound = "NCCCCCCn1c(-c2ccc(Br)cc2)cs/c1=N\\c1ccccc1"
assigned_label = "inactive"

[[record]]
compound = "COc1cc(/C=C/C(=N\\NS(=O)(=O)c2ccc(C)cc2)c2sc(NNC(C)=O)nc2C)ccc1O"
assigned_label = "inactive"

[[record]]
compound = "CN(C)C(=S)/N=c1\\ss/c(=N\\C(=S)N(C)C)n1C1CCCCC1"
assigned_label = "inactive"

[[record]]
compound = "COc1ccc(C(=O)NCCN(C)C)c2nc3ccccc3cc12"
assigned_label = "active"

[[record]]
compound = "O=C(Cc1nc2ccccc2s1)C(=O)Nc1cccc(Cl)c1"
assigned_label = "inactive"

[[record]]
compound = "O=C1C(c2ccccc2)=C(O)c2cccc3cccc1c23"
assigned_label = "inactive"

[[record]]
compound = "N#CC1(Cc2ccccc2[N+](=O)[O-])c2ccccc2C2C(N1C(=O)c1ccccc1)C2(Cl)Cl (stereo unspecified)"
assigned_label = "inactive"

[[record]]
compound = "CCC1([N+](=O)[O-])CN(N=O)C1"
assigned_label = "inactive"


====

# System: K562
# assay-comment: NCI tumour cell line growth inhibition, 48 h
The source made the active and inactive calls. Rule as the data show it: active = GI50 up to about 1.1 µM and inactive = higher.
Classes used: label 1 for active, label 0 for inactive

[[record]]
molecule = "O=C(/C=C/c1ccc(Cl)cc1)c1ccc(Cl)c(Cl)c1"
tgt = "K562"
assigned_label = "label 0"

[[record]]
molecule = "C[C@@H](NC(C#N)c1ccco1)c1ccccc1 (stereo partly drawn)"
tgt = "K562"
assigned_label = "label 0"

[[record]]
molecule = "S=C(Nc1ccc2c(c1)Cc1ccccc1-2)Nc1ccc2c(c1)Cc1ccccc1-2"
tgt = "K562"
assigned_label = "label 0"

[[record]]
molecule = "CC1(C)OCC2(CO1)CSCCCSCC1(COC(C)(C)OC1)CSCCCSC2"
tgt = "K562"
assigned_label = "label 0"

[[record]]
molecule = "CC1CCCc2c(CC3CC(=O)NC(=O)C3)n[nH]c21 (stereo not drawn)"
tgt = "K562"
assigned_label = "label 0"

[[record]]
molecule = "COc1ccc(/C(=N\\Nc2ccccn2)c2ccccn2)cc1"
tgt = "K562"
assigned_label = "label 1"

[[record]]
molecule = "Cc1nc(O)nc2nc3ccc(Cl)cc3c(N(CCO)CCO)c12"
tgt = "K562"
assigned_label = "label 0"

[[record]]
molecule = "COc1ccc(/C=C/C(=O)c2cc(C(=O)O)c(OC)cc2OC)cc1OC"
tgt = "K562"
assigned_label = "label 0"

[[record]]
molecule = "N#C/C(=C\\c1ccc(O)c(O)c1)C(N)=O"
tgt = "K562"
assigned_label = "label 0"

[[record]]
molecule = "O=C(O)c1cnccc1-c1cc(=O)[nH]n1-c1ccccc1"
tgt = "K562"
assigned_label = "label 0"

[[record]]
molecule = "COC1(C(C)(C)C)C=C(C(C)(C)C)P(=O)(O)O1 (stereo not drawn)"
tgt = "K562"
assigned_label = "label 0"

[[record]]
molecule = "N#Cc1c(N2CCCC2)nsc1Nc1ccccc1"
tgt = "K562"
assigned_label = "label 0"

[[record]]
molecule = "COc1cc(C(=O)NNC(=O)c2cc(Br)ccc2NC(=O)c2cccs2)cc(OC)c1OC"
tgt = "K562"
assigned_label = "label 1"

[[record]]
molecule = "C1CCN2CC3CCCN4CCCC(C2C1)C34 (stereo not drawn)"
tgt = "K562"
assigned_label = "label 0"

[[record]]
molecule = "O=C1C=CC(=O)N1c1ccc(I)cc1"
tgt = "K562"
assigned_label = "label 0"

[[record]]
molecule = "CCS(=O)(=O)c1c2cc(OC)ccc2nc2ccc(OC)cc12"
tgt = "K562"
assigned_label = "label 0"

[[record]]
molecule = "Cc1ccc(-n2nnc(C(N)=O)c2O)cc1"
tgt = "K562"
assigned_label = "label 0"

[[record]]
molecule = "CC1(C)N=C(c2ccccn2)C(c2ccccn2)=NC1(C)C"
tgt = "K562"
assigned_label = "label 0"

[[record]]
molecule = "O=[PH](O)c1cc2ccccc2c2ccccc12"
tgt = "K562"
assigned_label = "label 0"

[[record]]
molecule = "Cc1cc2nc(C=C(C(F)(F)F)C(F)(F)F)oc2cc1C"
tgt = "K562"
assigned_label = "label 0"

[[record]]
molecule = "CNC(=O)Nc1cc2c3c(c1)CCCN3CCC2"
tgt = "K562"
assigned_label = "label 0"

[[record]]
molecule = "N=C(N)Nc1nc2cc([N+](=O)[O-])ccc2[nH]1"
tgt = "K562"
assigned_label = "label 0"

[[record]]
molecule = "Cc1cccc(-c2nnc3s/c(=C\\c4ccc5c(c4)OCO5)c(=O)n23)c1"
tgt = "K562"
assigned_label = "label 0"

[[record]]
molecule = "COc1cc([C@H]2Oc3c(c(O)cc4oc(-c5ccccc5)cc(=O)c34)O[C@@H]2CO)ccc1O"
tgt = "K562"
assigned_label = "label 0"

[[record]]
molecule = "C[C@H]1C(=O)c2c(cc(O)c(C3OC(CO)C(O)C(O)C3O)c2O)OC1c1ccc(O)c(O)c1 (stereo partly drawn)"
tgt = "K562"
assigned_label = "label 0"

[[record]]
molecule = "O=C1C=CC2(O[C@H](c3ccccc3)[C@@H](c3ccccc3)O2)[C@H](Sc2ccccc2O)C1"
tgt = "K562"
assigned_label = "label 1"

[[record]]
molecule = "CCOC(=O)c1c(-c2ccc(Cl)cc2)c(C#N)c(=S)n(C2OC(COC(C)=O)C(OC(C)=O)C(OC(C)=O)C2OC(C)=O)c1C (stereo not drawn)"
tgt = "K562"
assigned_label = "label 0"

[[record]]
molecule = "O=C(Oc1ccccn1)c1cc2cc(CCl)ccc2oc1=O"
tgt = "K562"
assigned_label = "label 0"

[[record]]
molecule = "Cc1cc(S(=O)(=O)Nc2nc(N)n[nH]2)c(SCC(=O)O)cc1Cl"
tgt = "K562"
assigned_label = "label 0"

[[record]]
molecule = "CC1(CO)C(O)CCC2(C)C1C(O)CC1CC3CC12CCC3(O)CO (stereo not drawn)"
tgt = "K562"
assigned_label = "label 0"

[[record]]
molecule = "Clc1cccc2[nH]ncc12"
tgt = "K562"
assigned_label = "label 0"

[[record]]
molecule = "CCOC(=O)c1c2ccc(/C=C/C(=O)OC)ccc-2c(C(=O)OCC)c1N"
tgt = "K562"
assigned_label = "label 0"

[[record]]
molecule = "CC(=O)O[C@H]1C[C@H](O[C@H]2[C@@H](O)C[C@H](O[C@H]3[C@@H](O)C[C@H](O[C@H]4CC[C@@]5(C)[C@H](CC[C@@H]6[C@@H]5CC[C@]5(O)[C@@H](C7=CC(=O)OC7)CC[C@]65O)C4)O[C@@H]3C)O[C@@H]2C)O[C@H](C)[C@H]1O[C@@H]1O[C@H](CO)[C@@H](O)[C@H](O)[C@H]1O"
tgt = "K562"
assigned_label = "label 1"

[[record]]
molecule = "Cc1ccc(S(=O)(=O)CNC(=O)C(O)(O)C(F)(F)F)cc1"
tgt = "K562"
assigned_label = "label 0"

[[record]]
molecule = "COc1cc2c(cn1)[nH]c1ccccc12"
tgt = "K562"
assigned_label = "label 0"

[[record]]
molecule = "CCOC(=O)C1C(=O)CC(O)(OCC)C(C(=O)OCC)C1c1ccc(OC)cc1 (stereo not drawn)"
tgt = "K562"
assigned_label = "label 0"

[[record]]
molecule = "COc1cc([N+](=O)[O-])c(S(=O)(=O)O)cc1-n1nc(C(=O)Nc2ccccc2)n[n+]1-c1cc(S(=O)(=O)[O-])c([N+](=O)[O-])cc1OC"
tgt = "K562"
assigned_label = "label 0"

[[record]]
molecule = "CCc1c(Cl)nc(Cl)nc1Cl"
tgt = "K562"
assigned_label = "label 1"

[[record]]
molecule = "O=c1n(CCO)nc2n1CCCN2"
tgt = "K562"
assigned_label = "label 0"

[[record]]
molecule = "COC1(C)Cc2c(c(C)c(O)c3c2C(=O)C=C(Cl)C3=O)O1 (stereo not drawn)"
tgt = "K562"
assigned_label = "label 0"

[[record]]
molecule = "Cc1ccc(NC(=O)C(=O)C2C(=O)NC(=O)NC2=O)c(C)c1"
tgt = "K562"
assigned_label = "label 0"

[[record]]
molecule = "Cc1nc2nn[nH]n2c(=O)c1CCO"
tgt = "K562"
assigned_label = "label 0"

[[record]]
molecule = "CC1=CC(=O)/C(=C/NC(=S)C(N)=S)C(=O)O1"
tgt = "K562"
assigned_label = "label 0"


====

Recorded GI50 for the following compounds
# Test system: SK-MEL-5
# assay-comment: NCI tumour cell line growth inhibition, 48 h
Calls of active or inactive are those of the source. Cut-off read from the data, not from the text of the source: active = GI50 up to about 1.1 µM and inactive = higher.
measure: GI50

[[record]]
compound = "O=CC1=CCCC2(C1)OCCO2"
tgt = "SK-MEL-5"
value_observed = "> 100 µM (inactive)"

[[record]]
compound = "C=C(C)COC(=O)COCC(=O)OCC(=C)C"
tgt = "SK-MEL-5"
value_observed = "> 100 µM (inactive)"

[[record]]
compound = "CC(C)(C)[C@H]1CO[C@]2(c3ccccc3)[C@@H]3C[C@@H]3C(=O)N12"
tgt = "SK-MEL-5"
value_observed = "> 100 µM (inactive)"

[[record]]
compound = "Cc1ccc(S(=O)(=O)N2CC2CCCCC=O)cc1 (stereo unspecified)"
tgt = "SK-MEL-5"
value_observed = "54.2 µM (inactive)"

[[record]]
compound = "O=C(c1ccco1)N(C(=S)N1CCN(c2ccccc2)CC1)C1CCCCC1"
tgt = "SK-MEL-5"
value_observed = "56.4 µM (inactive)"

[[record]]
compound = "Cc1ccc(S(=O)(=O)CNC(=O)C(O)(O)C(F)(F)F)cc1"
tgt = "SK-MEL-5"
value_observed = "> 100 µM (inactive)"

